Target of assay: T1, TFAM (no MTS) (Homo sapiens, UniProt Q00059 43-246)
T1 sequence: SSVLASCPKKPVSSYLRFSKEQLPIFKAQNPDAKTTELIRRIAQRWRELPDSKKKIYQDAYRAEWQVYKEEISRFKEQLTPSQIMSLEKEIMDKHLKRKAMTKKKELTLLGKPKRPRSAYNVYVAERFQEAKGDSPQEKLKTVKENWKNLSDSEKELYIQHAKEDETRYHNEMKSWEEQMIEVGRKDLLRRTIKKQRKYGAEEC
Protocol details: fluorescence anisotropy; +UVC; Hill n 1.81±0.05; FP: 25 mM HEPES, 10 mM Mg(OAc)2, 25 mM NaOAc, 75 mM KOAc, pH 7.5, 1 nM DNA, TFAM 0-15 nM diluted on ice (read temperature not stated); AFM oligos: on ice, 2 min
Run parameters: protein: recombinant; label: 5' 6-FAM on strand 1; blunt

Binder | Kd / nM
TRNT_10 +UVC (dsDNA, UVC 1500 J/m2 photolesions (positions undefined)) DNA 1: CTTGTAGTATAAACTAATACACCAGTCTTGTAA DNA 2: TTACAAGACTGGTGTATTAGTTTATACTACAAG | 7.79
